# Method Summary: amyloid nucleation score (Sup35N fusion, yeast selection) (log enrichment); library NNK2; higher = more nucleation; inactive = no reads after selection;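 note: zero at mode of non-aggregating sequences after 7 days selection at 30°C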
Think of 0.6 as a floor: if amyloid nucleation score stands on it or above, it is fulfilled; beneath it, not fulfilled.

Task: amyloid nucleation score >= 0.6 for `HGCLYFRFLNALSSFGGYRA` ?
Result: not fulfilled

Task: amyloid nucleation score >= 0.6 for `FTTPVSFSFVLRLITTPRTY` ?
Result: not fulfilled

Task: amyloid nucleation score >= 0.6 for `VDFFVFHLVTDSIMSYAHCM` ?
Result: fulfilled

***
Task: amyloid nucleation score >= 0.6 for `YMCCFYAVGFPFDYKLGFVR` ?
Result: fulfilled

Task: amyloid nucleation score >= 0.6 for `SKLTRSIENLLF` ?
Result: fulfilled
